run-description: Antiproliferative activity against HEK293T cells assessed as inhibition of cell proliferation at 10 uM by MTT assay
Assay type: cell-based, HEK-293T
recorded-conditions: human
Label True when inhibition at 10 µM is at or above 60%; otherwise label False.

query: Confirm if inhibition at 10 µM reported for the compound "O=[N+]([O-])c1ccc2c(c1)CCN2S(=O)(=O)c1ccc(-c2cnc(C3CC3)o2)cc1" is 60% or above.
result: False

query: # iterate: "O=S(=O)(c1ccc(-c2cnc(C3CC3)o2)cc1)N1CCc2ccc(Cl)cc21"
result: True

query: # iterate: "O=[N+]([O-])c1ccc2c(c1)N(S(=O)(=O)c1ccc(-c3cnc(C4CC4)o3)cc1)CC2"
result: True

query: # iterate: "O=S(=O)(c1ccc(-c2cnc(C3CC3)o2)cc1)n1ccc2ccccc21"
result: False

====

System: A549
run-description: Antiproliferative activity against human A549 cells assessed as inhibition of cell proliferation at 10 uM by MTT assay
Format: functional
So I've got a bunch of molecules here, and I need their inhibition at 10 µM values.
Provide only the numeric value, understood in %.

query: So what's the measured inhibition at 10 µM for this one? "O=S(=O)(c1ccc(-c2cnc(C3CC3)o2)cc1)n1ccc2ccccc21"
result: 77.6

query: # iterate: "O=c1[nH]n(S(=O)(=O)c2ccc(-c3cnc(C4CC4)o3)cc2)c2ccccc12"
result: 66.5

query: # iterate: "O=[N+]([O-])c1ccc2c(c1)N(S(=O)(=O)c1ccc(-c3cnc(C4CC4)o3)cc1)CC2"
result: 50.3

query: # iterate: "O=S(=O)(c1ccc(-c2cnc(C3CC3)o2)cc1)N1CC2(CCCCC2)c2ccccc21"
result: 58.4

query: # iterate: "O=[N+]([O-])c1ccc2c(c1)CCN2S(=O)(=O)c1ccc(-c2cnc(C3CC3)o2)cc1"
result: 73.1

query: # iterate: "O=S(=O)(c1ccc(-c2cnc(C3CC3)o2)cc1)N1CCc2ccc(Cl)cc21"
result: 63.6

query: # iterate: "Cc1ccc2c(c1)CCN2S(=O)(=O)c1ccc(-c2cnc(C3CC3)o2)cc1"
result: 63.4

query: # iterate: CC1Cc2ccccc2N1S(=O)(=O)c1ccc(-c2cnc(C3CC3)o2)cc1 (centres undefined)
result: 52.4

query: # iterate: "CS(=O)(=O)c1ccc2c(c1)CCN2S(=O)(=O)c1ccc(-c2cnc(C3CC3)o2)cc1"
result: 4.14

====

run-description: Antiproliferative activity against human PC3 cells assessed as inhibition of cell proliferation by MTT assay
Assay type: functional, cell-based
recorded-conditions: PC-3
measure-name: IC50 (nM)
Provide only the numeric value, understood in nM.

query: So what's the measured IC50 for this one? "O=S(=O)(c1ccc(-c2cnc(C3CC3)o2)cc1)N1CCc2ccccc21"
result: 62

query: # iterate: CC1Cc2ccccc2N1S(=O)(=O)c1ccc(-c2cnc(C3CC3)o2)cc1 (stereo not given)
result: 20500

query: # iterate: "O=[N+]([O-])c1ccc2c(c1)N(S(=O)(=O)c1ccc(-c3cnc(C4CC4)o3)cc1)CC2"
result: 14

query: # iterate: "O=[N+]([O-])c1ccc2c(c1)CCN2S(=O)(=O)c1ccc(-c2cnc(C3CC3)o2)cc1"
result: 1920

query: # iterate: "O=S(=O)(c1ccc(-c2cnc(C3CC3)o2)cc1)N1CCc2ccc(Cl)cc21"
result: 138

query: # iterate: "Cc1ccc2c(c1)CCN2S(=O)(=O)c1ccc(-c2cnc(C3CC3)o2)cc1"
result: 189

query: # iterate: "COc1ccc2c(c1)CCN2S(=O)(=O)c1ccc(-c2cnc(C3CC3)o2)cc1"
result: 82

query: # iterate: "O=c1[nH]n(S(=O)(=O)c2ccc(-c3cnc(C4CC4)o3)cc2)c2ccccc12"
result: 1460

query: # iterate: "O=S(=O)(c1ccc(-c2cnc(C3CC3)o2)cc1)N1CC2(CCCCC2)c2ccccc21"
result: 6580
